Attribution: PubChem BioAssay

- Protocol Description: viability loss with induced miR-34 in A549 – imaging, A549 dox-inducible miR-34, nuclei and caspase counts, primary screen (AID 1347080); further: test concentration not given here
- Conditions: A549 miR-34 inducible, Hoechst nuclei count, 48 h; measured here: total cells without miR-34 induction

- Compound: "C=CC(C)(O)CCC1[C@@]2(C)CCCC(C)(C)C2CC[C@@]1(C)O (stereo not given in full)"
  cell count: 8970
- Compound: "CC(C)(C#N)c1ccc(N2C(=O)OCc3cnc4ccc(-c5cnc6ccccc6c5)cc4c32)cc1"
  cell count: 2620
- Compound: "CC(=Cc1ccc(C(=O)O)cc1)c1ccc2c(c1)C(C)(C)CCC2(C)C"
  cell count: 8370
- Compound: "CC(C)n1cc(-c2cc(C(=O)N(C)Cc3cccnc3)c3ccc(F)cc3n2)cn1"
  cell count: 10700
- Compound: "O=C(O)c1ccc(O)cc1O"
  cell count: 9810
- Compound: "O=C1OC(CN2CCOCC2)CN1N=Cc1ccc([N+](=O)[O-])o1 (stereo not given)"
  cell count: 9900
- Compound: "COc1ccc2c(C(=O)N(C)Cc3nonc3C)cc(-c3cnn(C)c3)nc2c1"
  cell count: 8400
- Compound: "CC(C)(C)Nc1nc(N)c(C(=O)c2ccccc2)s1"
  cell count: 7540
- Compound: "COC1=C2CC(C)CC(OC)C(O)C(C)C=C(C)C(OC(N)=O)C(OC)C=CC=C(C)C(=O)NC(=CC1=O)C2=O (stereo not given)"
  cell count: 3550
- Compound: "CNc1nc(Nc2cnn(C3CCN(C4COC4)CC3F)c2Cl)ncc1C(F)(F)F (stereo not given)"
  cell count: 8760
